Data provenance: the Human Domainome abundance scans (Beltran et al. 2025)

B1: Ankyrin repeat and SOCS box protein 14, residues 532 to 572; numbered along this chain, A6NK59 (parent)
chain: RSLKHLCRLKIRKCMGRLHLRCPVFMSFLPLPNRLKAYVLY

- Variants of: B1
- Test summary: abundance fitness (aPCA) (normalised: wild type 0, dead -1); higher = more abundant; growth selection in yeast, the domain comes from the species named
- Conditions used: Homo sapiens
Measurement label: abundance fitness

Give the reported value of abundance fitness for this record: `Y41H`
0.12

Retrieve abundance fitness measured for `V39T` and print it.
-0.186

Return value of abundance fitness for input `K10G` , no commentary.
-0.066

State its abundance fitness for this variant: `L40R`
0.055

Specify measured abundance fitness for `F25S` .
-0.095

Read off the recorded abundance fitness for `P23S`
0.273

Name the recorded abundance fitness of the variant listed here: `P23Q`
0.407

Check the records and state abundance fitness for `F28S`
-0.05

Retrieve abundance fitness measured for `K13L` and print it.
-0.241

Return abundance fitness (reported value) for this variant: `R21T`
-0.178

Return reported abundance fitness. Input variant: `L3R`
-0.759
